B1: ZNF193 (parent)
chain: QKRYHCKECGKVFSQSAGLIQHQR

Variants of: B1
Test: protein stability index of a GFP-peptide fusion (GPS, HEK-293T) (PSI 1-6); higher = more stable;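 note: lentivirally expressed fusions sorted by FACS into six bins by GFP to DsRed ratio, PSI derived from sequencing read proportions per bin multiplied by bin number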
Details: c terminus: a fixed tail appended
readout_name: protein stability index
Please give only the number in your answer, with no unit.

Completed entries (count: 5):
INSERT INTO assay_data (mutation_descriptor, measured) VALUES
  ('K2E', 3.08),
  ('I20K', 3.26),
  ('K2Y', 2.6),
  ('H5K', 3.92),
  ('I20F', 2.45);

Query: Supply measured protein stability index of Q21R in your reply.
Result: 2.69
